# TARGET_UNDER_TEST: IRAK4 kinase (Homo sapiens (Human), UniProt Q9NWZ3)
# Sequence (Q9NWZ3 whole entry): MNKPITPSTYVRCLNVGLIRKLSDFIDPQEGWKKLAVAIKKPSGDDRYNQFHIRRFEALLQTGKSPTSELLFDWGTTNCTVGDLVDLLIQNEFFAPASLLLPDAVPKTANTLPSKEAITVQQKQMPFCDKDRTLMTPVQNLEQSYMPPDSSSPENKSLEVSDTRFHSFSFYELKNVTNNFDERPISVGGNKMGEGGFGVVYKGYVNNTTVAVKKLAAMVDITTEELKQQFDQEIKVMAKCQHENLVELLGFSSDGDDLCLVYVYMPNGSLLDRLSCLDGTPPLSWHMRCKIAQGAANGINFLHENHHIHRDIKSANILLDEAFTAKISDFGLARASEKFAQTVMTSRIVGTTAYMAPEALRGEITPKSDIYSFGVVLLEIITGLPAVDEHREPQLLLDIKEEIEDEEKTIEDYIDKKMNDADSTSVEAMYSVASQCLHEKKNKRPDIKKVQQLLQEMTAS
# PROTOCOL: IRAK4 kinase activity inhibition assay
# Format: biochemical
# PARTICULARS: ADP-Glo kinase assay, 10 μM ATP, MBP substrate
MEASURED_ATTRIBUTE: IC50

Take a look at these entries with their results.
compound=CC(=O)NCCNc1nc(Nc2cc(C)ns2)nc2ccn(-c3cnn(C)c3)c12 measured_attribute=IC50 value_reported="100 to 1000 nM"
compound=Cc1cc(Nc2nc(OC3CCOCC3)c3c(ccn3-c3ccncc3)n2)sn1 measured_attribute=IC50 value_reported="100 to 1000 nM"
compound=CC(C)Nc1nc(Nc2cnn(C3CCOCC3)c2)nc2ccn(-c3cnn(C)c3)c12 measured_attribute=IC50 value_reported="100 to 1000 nM"
compound=CCNC(=O)c1csc(Nc2nc(OC3CCCC3)c3c(ccn3-c3cnn(C)c3)n2)c1 measured_attribute=IC50 value_reported="100 to 1000 nM"
compound="Cc1cc(Nc2nc(OC3CCCN(C)C3)c3c(ccn3-c3cnn(C)c3)n2)sn1 (centres unmarked)" measured_attribute=IC50 value_reported="100 to 1000 nM"
compound=Cn1cc(-n2ccc3nc(Nc4cn[nH]c4)nc(O[C@H]4CCOC4)c32)cn1 measured_attribute=IC50 value_reported="≤ 100 nM"

Record `Cc1cc(Nc2nc(NC(C)C)c3c(ccn3-c3ccc(N)nc3)n2)sn1` , field IC50: 1000 to 10000 nM

Record `COCCNC(=O)c1csc(Nc2nc(O[C@H]3CCOC3)c3c(ccn3-c3cnn(C)c3)n2)c1` , field IC50: ≤ 100 nM
